# System: TK-10 renal
# EXPERIMENT DESCRIPTION: NCI tumour cell line growth inhibition, 48 h; in the data active = GI50 below about 0.43 µM; inactive = the rest
*1 amine or outer side, *2 acyl side, *3 side chain or, on linkers, in order; H or OH if unused. Where a SMILES comes first, the peptide text is derived from it. Bridges are numbered along the chain shown (N, C = ends). Roman numbers before positions name the chains, in order. [ ]: non-standard residue; d: D form. Actinocin(9to1) = Cc1c2oc3c(C)ccc(C(=O)[*:1])c3nc-2c(C(=O)[*:2])c(N)c1=O; NMeV = CN[CH](C(=O)O)C(C)C; Sar = CNCC(=O)O
Lab note: assign the record to one of 1.0 (active), 0.0 (inactive)

Recorded results for 8 compounds are shown here.
CCCCC(SC(=S)N1CCCC1)C(=O)Nc1nc(CC(=O)OCC)cs1 (centres undefined)    0.0
CO/N=C(\COc1ccc2c(=O)c3ccccc3oc2c1)c1ccccc1    0.0
Cc1c2oc3c(C)ccc(C(=O)NC4C(=O)NC(Cc5ccccc5)C(=O)N5CCCC5C(=O)N(C)CC(=O)N(C)C(C(C)C)C(=O)OC4C)c3nc-2c(C(=O)NC2C(=O)NC(Cc3ccccc3)C(=O)N3CCCC3C(=O)N(C)CC(=O)N(C)C(C(C)C)C(=O)OC2C)c(N)c1=O (centres undefined) (I: TFP[Sar][NMeV] / II: TFP[Sar][NMeV]; ester I:1-I:C, II:1-II:C; linker I:N-II:N via Actinocin(9to1); configuration not given here)    1.0
COC(=O)c1c2c(c(C)[n+]([O-])c1C)C(=O)C=C(NCc1ccccc1)C2=O    0.0
CNC(=O)NCC1OC(n2cnc3c(NC(=O)Nc4ccccc4)ncnc32)C(O[Si](C)(C)C(C)(C)C)C1O[Si](C)(C)C(C)(C)C (centres undefined)    0.0
C=C(C)[C@@H]1CCC=C2CC[C@]3(C)[C@H](CC[C@@H]4[C@@]5(C)CCCNC(C)(C)[C@@H]5CC[C@]43C)[C@H]21    0.0
O=C(NCCN1CCOCC1)OCc1nc2nc(Cl)nc(N3CCOCC3)c2[nH]1    0.0
COc1c(C(C)=O)c(OCCCCOc2c(C(C)=O)c(OC)c3ccoc3c2OC)c(OC)c2occc12    0.0

Assay result, entry COc1ccc2c(c1)nc(NNC(=O)c1cnccn1)c1cccn12 — outcome?
1.0

Test call, this compound: Cc1ccc2nc3ccccc3c(NCc3ccc(Cl)cc3)c2c1
0.0

Assay outcome for CCC1(O)CC(OC2CC(N(C)C)C(OC3CC(O)C(OC4OC(C)C(=O)C=C4N)C(C)O3)C(C)O2)c2c(cc3c(c2O)C(=O)c2c(O)cccc2C3=O)C1C(=O)OC (centres undefined) : what was it?
1.0

# fetch the recorded call for Cc1ccc(S(=O)(=O)Oc2ccc3c4c(c(=O)oc3c2)CCCCCC4)cc1 here
0.0

Would you mind telling me which call this test gave COc1ccc(/C=C(/c2ccccc2)[N+](=O)[O-])c(OC)c1 ?
0.0

Outcome logged for N#Cc1nc(-c2ccc(F)cc2)oc1S(=O)(=O)N1CCCCC1 in this assay:
0.0
